Give measured Cumulative mortality After 3 hours for each item. Keep answers brief.
Tested on: std:ddy strain male mice
Assay: Toxicity to mouse, administration into the stomach
Type: in vivo
Conditions: 100 mg/kg

Q: Please give the measured Cumulative mortality After 3 hours for this compound: `FC(F)(F)Sc1cn(-c2c(Cl)cc(C(F)(F)F)cc2Cl)c2ccccc12`
A: 0/5

Q: If you can, please state the reported Cumulative mortality After 3 hours value of `FC(Cl)(Cl)Sc1cn(-c2c(Cl)cc(C(F)(F)F)cc2Cl)c2ccccc12` .
A: 0/5

Q: Which value of Cumulative mortality After 3 hours has been reported for `Cc1c(SC(F)(Cl)Cl)c2ccccc2n1-c1ncc(C(F)(F)F)cc1Cl` in the records?
A: 0/5

Q: May I ask what Cumulative mortality After 3 hours has been recorded for N#Cc1nn(-c2c(Cl)cc(C(F)(F)F)cc2Cl)c(N)c1[S+]([O-])C(F)(F)F (stereo not shown) [Fipronil, reference compound] ?
A: 1/5
